The origin of these recorded values is ChEMBL document CHEMBL5352402.

Field: IC50. Provide a value for each of the compounds that follow.
system: U-937; test: cells; details: Homo sapiens, U-937, 72 h
Description: Antiproliferative activity against human U-937 cells assessed as inhibition of cell proliferation incubated for 72 hrs by MTT assay
Quick reminder: number only, in nM, skip the unit.

Reported IC50 for "Cc1oc2ncn(CCN3CCCC3)c(=O)c2c1C(=O)Nc1ccc(S(N)(=O)=O)nc1" was 700

Reported IC50 for "Cc1oc2ncn(CCN(C)C)c(=O)c2c1C(=O)Nc1ccc(S(N)(=O)=O)nc1" was 2300

Reported IC50 for "Cc1oc2ncn(CCN3CCCCC3)c(=O)c2c1C(=O)Nc1ccc(S(N)(=O)=O)nc1" was 1800

Reported IC50 for "Cc1oc2ncn(CCCN3CCCC3)c(=O)c2c1C(=O)Nc1ccc(S(N)(=O)=O)nc1" was 4200

Reported IC50 for "Cc1oc2ncn(CCCN3CCCCC3)c(=O)c2c1C(=O)Nc1ccc(S(N)(=O)=O)nc1" was 3500

Reported IC50 for "Cc1cc(Nc2ccc(NC(=O)c3ccc(Nc4ccnc5ccccc45)cc3)cc2)nc(N)n1" was 700

---

MEASURED ATTRIBUTE: pIC50
pIC50 here is simply -log10 of the concentration when that concentration is written in mol/L.

For the molecule "Cc1oc2ncn(CCN(C)C)c(=O)c2c1C(=O)Nc1ccc(S(N)(=O)=O)nc1" , the measured pIC50 on DNMT3B (Homo sapiens, UniProt Q9UBC3) was 3.66

For the molecule "Cc1oc2ncn(CCCN3CCCC3)c(=O)c2c1C(=O)Nc1ccc(S(N)(=O)=O)nc1" , the measured pIC50 on DNMT3B (Homo sapiens, UniProt Q9UBC3) was 3.92

---

Field: inhibition. Provide a value for each of the molecules that follow.
molecular target: DNMT3A2/3L complex (Homo sapiens) (UniProt Q9Y6K1+Q9UJW3); experiment: Inhibition of N-terminal His-tagged human DNMT3A (623 to 912 residues)/N-terminal GST-tagged human DNMT3L (160 to 387 residues) co-expressed in baculovirus infected Sf9 cells assessed as DNA methylation using DNA oligonucleotide IDT-01 as substrate at 10 uM preincubated for 15 mins followed by substrate addition in presence of [3H]-SAM and measured after 4 hrs by radioactive methylation assay; details: time 255.0 min
Sequence (Q9UJW3 whole entry, looked up, the tested form may be a part): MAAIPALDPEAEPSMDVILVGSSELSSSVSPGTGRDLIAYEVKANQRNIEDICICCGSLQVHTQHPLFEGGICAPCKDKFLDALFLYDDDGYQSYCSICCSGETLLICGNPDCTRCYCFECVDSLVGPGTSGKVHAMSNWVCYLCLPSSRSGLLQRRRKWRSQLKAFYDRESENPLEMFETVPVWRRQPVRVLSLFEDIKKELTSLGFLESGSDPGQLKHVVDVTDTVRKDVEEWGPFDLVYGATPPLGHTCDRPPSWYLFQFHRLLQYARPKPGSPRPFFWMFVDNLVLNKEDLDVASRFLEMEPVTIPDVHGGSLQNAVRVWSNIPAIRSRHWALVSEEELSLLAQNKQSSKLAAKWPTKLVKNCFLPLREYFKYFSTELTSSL
Sequence (Q9Y6K1 whole entry, looked up, the tested form may be a part): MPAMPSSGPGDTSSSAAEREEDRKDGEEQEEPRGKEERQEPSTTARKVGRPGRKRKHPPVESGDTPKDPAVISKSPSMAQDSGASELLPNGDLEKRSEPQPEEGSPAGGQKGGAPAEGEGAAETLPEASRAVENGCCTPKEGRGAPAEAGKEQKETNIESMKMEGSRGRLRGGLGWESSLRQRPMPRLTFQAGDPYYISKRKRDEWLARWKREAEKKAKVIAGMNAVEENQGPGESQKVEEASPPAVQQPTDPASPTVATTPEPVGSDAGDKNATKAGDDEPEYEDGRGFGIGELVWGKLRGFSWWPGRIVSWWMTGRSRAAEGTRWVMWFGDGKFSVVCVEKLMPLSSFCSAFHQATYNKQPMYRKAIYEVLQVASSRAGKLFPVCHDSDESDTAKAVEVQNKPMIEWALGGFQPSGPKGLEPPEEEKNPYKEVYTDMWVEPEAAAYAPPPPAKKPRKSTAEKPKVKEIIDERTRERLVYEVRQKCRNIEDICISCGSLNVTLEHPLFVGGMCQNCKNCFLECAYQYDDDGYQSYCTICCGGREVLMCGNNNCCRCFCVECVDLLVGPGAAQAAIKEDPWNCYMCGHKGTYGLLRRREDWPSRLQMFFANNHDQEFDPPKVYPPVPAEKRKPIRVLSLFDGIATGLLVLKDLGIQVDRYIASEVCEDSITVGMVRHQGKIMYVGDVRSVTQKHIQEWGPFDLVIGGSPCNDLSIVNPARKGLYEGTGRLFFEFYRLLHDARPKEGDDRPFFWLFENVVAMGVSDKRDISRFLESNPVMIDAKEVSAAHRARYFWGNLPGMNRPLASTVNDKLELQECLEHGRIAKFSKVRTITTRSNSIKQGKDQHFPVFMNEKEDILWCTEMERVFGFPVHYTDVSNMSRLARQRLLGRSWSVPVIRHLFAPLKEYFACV
Quick reminder: number only, in %, skip the unit.

For the molecule "Cc1oc2ncn(Cc3cccnc3)c(=O)c2c1C(=O)Nc1ccc(S(N)(=O)=O)nc1" , the measured inhibition on DNMT3A2/3L complex (Homo sapiens) (UniProt Q9Y6K1+Q9UJW3) was 11.3

For the molecule "Cc1oc2ncn(CCN3CCOCC3)c(=O)c2c1C(=O)Nc1ccc(C#N)cc1" , the measured inhibition on DNMT3A2/3L complex (Homo sapiens) (UniProt Q9Y6K1+Q9UJW3) was 1

For the molecule "Cc1oc2ncn(CCN(C)C)c(=O)c2c1C(=O)Nc1ccc(C#N)cc1" , the measured inhibition on DNMT3A2/3L complex (Homo sapiens) (UniProt Q9Y6K1+Q9UJW3) was 21.7

For the molecule "Cc1oc2ncn(CCN3CCCC3)c(=O)c2c1C(=O)Nc1ccc(C#N)cc1" , the measured inhibition on DNMT3A2/3L complex (Homo sapiens) (UniProt Q9Y6K1+Q9UJW3) was 47.5

For the molecule "Cc1oc2ncn(CCN3CCCCC3)c(=O)c2c1C(=O)Nc1ccc(C#N)cc1" , the measured inhibition on DNMT3A2/3L complex (Homo sapiens) (UniProt Q9Y6K1+Q9UJW3) was 25.4

For the molecule "Cc1oc2ncn(CCCN3CCOCC3)c(=O)c2c1C(=O)Nc1ccc(C#N)cc1" , the measured inhibition on DNMT3A2/3L complex (Homo sapiens) (UniProt Q9Y6K1+Q9UJW3) was 22.7

For the molecule "Cc1sc2ncn(CCN3CCOCC3)c(=O)c2c1C(=O)Nc1ccc(S(N)(=O)=O)nc1" , the measured inhibition on DNMT3A2/3L complex (Homo sapiens) (UniProt Q9Y6K1+Q9UJW3) was 8.3

For the molecule "Cc1sc2ncn(CCCN(C)C)c(=O)c2c1C(=O)Nc1ccc(C#N)nc1" , the measured inhibition on DNMT3A2/3L complex (Homo sapiens) (UniProt Q9Y6K1+Q9UJW3) was 28.9

For the molecule "Cc1oc2ncn(CCCN3CCCCC3)c(=O)c2c1C(=O)Nc1ccc(C#N)cc1" , the measured inhibition on DNMT3A2/3L complex (Homo sapiens) (UniProt Q9Y6K1+Q9UJW3) was 32.9
